Test description: Caco-2 cell permeability assay
Assay type: in vitro ADME
Condition info: human, Caco-2, Papp, Replicate 1, Direction B‐A, 10 μM, 90 min
Measured quantity: Papp at 90 min, 10 μM (nm/s)

[1] CC[C@H]1OC(=O)[C@H](C)[C@@H](O[C@H]2C[C@@](C)(OC)[C@@H](O)[C@H](C)O2)[C@H](C)[C@@H](O[C@@H]2O[C@H](C)C[C@H](N(C)C)[C@H]2O)[C@](C)(O)C[C@@H](C)C(=O)[C@H](C)[C@@H](O)[C@]1(C)O
[2] COCCc1ccc(OCC(O)CNC(C)C)cc1 (centres unmarked)
Challenge: Of the two listed items, which has the higher Papp at 90 min, 10 μM? First: 1 Second: 2 Choose, then provide that item's label.
Response given: 2
(2: 347 nm/s, 1: 181 nm/s)
